- System: HCI-005.E2 (organoid from a breast cancer xenograft with a HER2-positive history)
- assay info: CTG-3D luminescence at 96 h relative to day-0 seeding control (ratio to day 0); higher = more growth / less cytotoxicity; PDxO 3D drug screen, 96 h, CTG-3D normalised to day-0 seeding control.
- test settings: 0.1 µM
quantity name: CTG-3D luminescence at 96 h
Give the value as a plain number.

structure as smiles: COc1cccc2c1C(=O)c1c(O)c3c(c(O)c1C2=O)C[C@@](O)(C(=O)CO)C[C@@H]3O[C@H]1C[C@H](N)[C@H](O)[C@H](C)O1
CTG-3D luminescence at 96 h: 1.07
//
structure as smiles: CS(=O)(=O)c1ccc(C(=O)Nc2ccc(Cl)c(-c3ccccn3)c2)c(Cl)c1
CTG-3D luminescence at 96 h: 1.57

With those in mind, consider the next molecule.
Form field: CTG-3D luminescence at 96 h recorded for `CCN(c1cc(C#CCN2CCOCC2)cc(C(=O)NCc2c(C)cc(C)[nH]c2=O)c1C)[C@H]1CC[C@H](N(C)CCOC)CC1` with HCI-005.E2 (enter value)
1.82

----------
- System: HCI-008 (organoid from a HER2-enriched breast cancer xenograft)
- assay info: CTG-3D luminescence at 96 h relative to day-0 seeding control (ratio to day 0); higher = more growth / less cytotoxicity; PDxO 3D drug screen (set 2), 96 h, CTG-3D normalised to day-0 seeding control.
- test settings: 0.1 µM; days in culture: 354
Item-by-item account of CTG-3D luminescence at 96 h

Use the examples below as a reference point.
compound: Nc1cc(C(F)(F)F)c(-c2cc(N3CCOCC3)nc(N3CCOCC3)n2)cn1 [buparlisib]
target or system: HCI-008
CTG-3D luminescence at 96 h: 1.46
//
compound: CO[C@H]1C[C@@H]2CC[C@@H](C)[C@@](O)(O2)C(=O)C(=O)N2CCCC[C@H]2C(=O)O[C@H]([C@H](C)C[C@@H]2CC[C@@H](OCCO)[C@H](OC)C2)CC(=O)[C@H](C)/C=C(\C)[C@@H](O)[C@@H](OC)C(=O)[C@H](C)C[C@H](C)/C=C/C=C/C=C/1C [everolimus]
target or system: HCI-008
CTG-3D luminescence at 96 h: 0.859
//
compound: CCOc1ccn(-c2ccc(F)cc2)c(=O)c1C(=O)Nc1ccc(Oc2ccnc(N)c2Cl)c(F)c1 [ASLAN002]
target or system: HCI-008
CTG-3D luminescence at 96 h: 1.45

Recorded CTG-3D luminescence at 96 h of CO[C@H]1C[C@@H]2CC[C@@H](C)[C@@](O)(O2)C(=O)C(=O)N2CCCC[C@H]2C(=O)O[C@H]([C@H](C)C[C@@H]2CC[C@@H](O)[C@H](OC)C2)CC(=O)[C@H](C)/C=C(\C)[C@@H](O)[C@@H](OC)C(=O)[C@H](C)C[C@H](C)/C=C/C=C/C=C/1C [rapamycin] , please.
0.845

----------
Item-by-item account of CTG-3D luminescence at 96 h
- Test system: HCI-012 (organoid from a breast cancer xenograft)
- assay info: CTG-3D luminescence at 96 h relative to day-0 seeding control (ratio to day 0); higher = more growth / less cytotoxicity; PDxO 3D drug screen, 96 h, CTG-3D normalised to day-0 seeding control.
- test settings: 10 µM; days in culture: 143

Use the examples below as a reference point.
compound: Cc1nc(-c2cn3c(n2)-c2ccc(-c4cnn(C(C)(C)C(N)=O)c4)cc2OCC3)n(C(C)C)n1 [taselisib]
experimental result: 0.59
//
compound: Cc1cc(Nc2ncc(Cl)c(Nc3ccccc3S(=O)(=O)C(C)C)n2)c(OC(C)C)cc1C1CCNCC1 [ceritinib]
experimental result: 0.0093
//
compound: CNC(=O)c1cccc(-c2ccc3c(N4CCOC[C@@H]4C)nc(N4CCOC[C@@H]4C)nc3n2)c1 [vistusertib]
experimental result: 0.875
//
compound: C/C=C1\NC(=O)[C@H]2CSSCC/C=C/[C@H](CC(=O)N[C@H](C(C)C)C(=O)N2)OC(=O)[C@H](C(C)C)NC1=O [romidepsin]
experimental result: 0.0103
//
compound: CN(Cc1cnc2nc(N)nc(N)c2n1)c1ccc(C(=O)N[C@@H](CCC(=O)O)C(=O)O)cc1 [methotrexate]
experimental result: 1.33

Recorded CTG-3D luminescence at 96 h of O=C(/C=C/c1cccnc1)NCCCCC1CCN(C(=O)c2ccccc2)CC1 [FK866] , please.
0.0863

Another compound to look at: COc1cc2c(Oc3ccc4[nH]c(C)cc4c3F)ncnc2cc1OCCCN1CCCC1 [cediranib]
0.0236

Another compound to look at: CCc1c2c(nc3ccc(O)cc13)-c1cc3c(c(=O)n1C2)COC(=O)[C@]3(O)CC [SN-38]
0.0255

----------
- System: HCI-002 (organoid from a triple-negative breast cancer xenograft)
- assay info: CTG-3D luminescence at 96 h relative to day-0 seeding control (ratio to day 0); higher = more growth / less cytotoxicity; PDxO 3D drug screen, 96 h, CTG-3D normalised to day-0 seeding control.
- test settings: 100 µM; days in culture: 82
Item-by-item account of CTG-3D luminescence at 96 h
Give the value as a plain number.

compound: CC1(C)CCC(c2ccc(Cl)cc2)=C(CN2CCN(c3ccc(C(=O)NS(=O)(=O)c4ccc(N[C@H](CCN5CCOCC5)CSc5ccccc5)c(S(=O)(=O)C(F)(F)F)c4)cc3)CC2)C1 [navitoclax]
target or system: HCI-002
CTG-3D luminescence at 96 h: 0.00885

compound: NC(=O)Nc1cc(-c2cccc(F)c2)sc1C(=O)N[C@H]1CCCNC1 [AZD7762]
target or system: HCI-002
CTG-3D luminescence at 96 h: 0.00321

compound: NC1(C(=O)N[C@@H](CCO)c2ccc(Cl)cc2)CCN(c2nc[nH]c3nccc2-3)CC1 [capivasertib]
target or system: HCI-002
CTG-3D luminescence at 96 h: 0.418

With those in mind, consider the next compound.
Recorded CTG-3D luminescence at 96 h of O=C(/C=C/c1cccnc1)NCCCCC1CCN(C(=O)c2ccccc2)CC1 [FK866] , please.
0.0409

----------
- System: HCI-001 (organoid from a triple-negative breast cancer xenograft)
- assay info: CTG-3D luminescence at 96 h relative to day-0 seeding control (ratio to day 0); higher = more growth / less cytotoxicity; PDxO 3D drug screen, 96 h, CTG-3D normalised to day-0 seeding control.
- test settings: 0.00025 µM; days in culture: 260
Item-by-item account of CTG-3D luminescence at 96 h
Give the value as a plain number.

Use the examples below as a reference point.
structure as smiles: CC1(C)CCC(c2ccc(Cl)cc2)=C(CN2CCN(c3ccc(C(=O)NS(=O)(=O)c4ccc(N[C@H](CCN5CCOCC5)CSc5ccccc5)c(S(=O)(=O)C(F)(F)F)c4)cc3)CC2)C1
target or system: HCI-001
CTG-3D luminescence at 96 h: 1.09
//
structure as smiles: C[C@@H]1COCCN1c1cc(C2([S@](C)(=N)=O)CC2)nc(-c2cc[nH]c3nccc2-3)n1
target or system: HCI-001
CTG-3D luminescence at 96 h: 0.899
//
structure as smiles: O=C(O)C1(C(=O)O)CCC1.[NH2-].[NH2-].[Pt+2]
target or system: HCI-001
CTG-3D luminescence at 96 h: 0.978
//
structure as smiles: Cc1cc(Nc2ncc(Cl)c(Nc3ccccc3S(=O)(=O)C(C)C)n2)c(OC(C)C)cc1C1CCNCC1
target or system: HCI-001
CTG-3D luminescence at 96 h: 1.05
//
structure as smiles: NC1(C(=O)N[C@@H](CCO)c2ccc(Cl)cc2)CCN(c2nc[nH]c3nccc2-3)CC1
target or system: HCI-001
CTG-3D luminescence at 96 h: 1.47
//
structure as smiles: NC(=O)c1cccc2cn(-c3ccc([C@@H]4CCCNC4)cc3)nc12
target or system: HCI-001
CTG-3D luminescence at 96 h: 1.11
//
structure as smiles: Nc1ccn([C@@H]2O[C@H](CO)[C@@H](O)C2(F)F)c(=O)n1
target or system: HCI-001
CTG-3D luminescence at 96 h: 0.95

Recorded CTG-3D luminescence at 96 h of `O=C(/C=C/c1cccnc1)NCCCCC1CCN(C(=O)c2ccccc2)CC1` , please.
0.894

----------
- Test system: HCI-010 (organoid from a breast cancer xenograft)
- assay info: CTG-3D luminescence at 96 h relative to day-0 seeding control (ratio to day 0); higher = more growth / less cytotoxicity; PDxO 3D drug screen, 96 h, CTG-3D normalised to day-0 seeding control.
- test settings: 0.1 µM; days in culture: 52
quantity name: CTG-3D luminescence at 96 h
Give the value as a plain number.

compound: C[C@@H]1COCCN1c1cc(C2([S@](C)(=N)=O)CC2)nc(-c2cc[nH]c3nccc2-3)n1 [ceralasertib]
CTG-3D luminescence at 96 h: 2.04

compound: NC(=O)c1cccc2cn(-c3ccc([C@@H]4CCCNC4)cc3)nc12 [niraparib]
CTG-3D luminescence at 96 h: 2.55

With those in mind, consider the next compound.
Recorded CTG-3D luminescence at 96 h of `CCN(c1cc(C#CCN2CCOCC2)cc(C(=O)NCc2c(C)cc(C)[nH]c2=O)c1C)[C@H]1CC[C@H](N(C)CCOC)CC1` , please.
2.47
